The reported numbers originate from patent US20090105278A1.

Where a name gives a salt, the structure may show the parent alone.

| COMPOUND | melting point (°C) |
| --- | --- |
| C(=C1\CCCc2ccccc21)/c1cccnc1.Cl | 206 |
| Cl.N#Cc1ccc2c(c1)/C(=C/c1cnc[nH]1)CCC2 | 217 |
| Brc1ccc2c(c1)CC/C2=C/c1cccnc1 (as salt: hydrochloride) | 243 |
| C(=C1\CCc2ccccc21)/c1cnc[nH]1 (as salt: oxalate) [Compound 42b] | 196 |
| COc1cc2c(cc1OC)/C(=C/c1ccncc1)CCC2.Cl | 197 |
| Clc1ccc2c(c1)CC/C2=C\c1ccncc1 (as salt: hydrochloride) | 213 |
| COc1cc2c(cc1OC)/C(=C/c1cccnc1)CCC2.Cl | 197 |
| Fc1ccc2c(c1)CC/C2=C\c1cccnc1 (as salt: hydrochloride) | 245 |
| N#Cc1ccc2c(c1)CC/C2=C\c1cnc[nH]1.O=C(O)C(=O)O [Compound 45a] | 217 |

----------
biological target: human CYP11B2 (Homo sapiens, UniProt P19099); assay: Screening test in transgenic fission yeast (S. pombe PE1) expressing human CYP11B2; format: cell-based; set-up: expressed in transfected cells; settings: S. pombe cells which express human CYP11B2; deoxycorticosterone substrate 100 nM; inhibitor 500 nM; read-out: % Inhibition human hCYP11B2
Where a name gives a salt, the structure may show the parent alone.

| COMPOUND | ASSAYED TARGET | inhibition at 0.5 µM |
| --- | --- | --- |
| Brc1ccc2c(c1)CC/C2=C\c1cccnc1 [Compound 9a, Hydrochloride] | human CYP11B2 (Homo sapiens, UniProt P19099) | 60% |
| Fc1ccc2c(c1)CC/C2=C/c1cccc2cnccc12 [Compound 30b, Hydrochloride] | human CYP11B2 (Homo sapiens, UniProt P19099) | 91% |
| C(=C1/CCc2ccccc21)/c1cnc[nH]1 [Compound 42a] | human CYP11B2 (Homo sapiens, UniProt P19099) | 77% |
| C(=C1\CCCc2ccccc21)/c1cccnc1.Cl [Compound 3b, Hydrochloride] | human CYP11B2 (Homo sapiens, UniProt P19099) | 68% |
| Brc1ccc2c(c1)CC/C2=C\c1cnc[nH]1.Cl [Compound 49a] | human CYP11B2 (Homo sapiens, UniProt P19099) | 68% |
| Clc1cccc2c1CC/C2=C/c1cccnc1 [Compound 25b, Hydrochloride] | human CYP11B2 (Homo sapiens, UniProt P19099) | 83% |
| C(=C1\CCc2ccccc21)/c1cnc[nH]1 [Compound 42b] | human CYP11B2 (Homo sapiens, UniProt P19099) | 81% |
| C(=C1/CCc2ccccc21)/c1cccnc1 [Compound 1a, Hydrochloride] | human CYP11B2 (Homo sapiens, UniProt P19099) | 82% |
| COc1ccc2c(c1)CC/C2=C\c1cccnc1 [Compound 11a, Hydrochloride] | human CYP11B2 (Homo sapiens, UniProt P19099) | 79% |
| Fc1cccc2c1CC/C2=C\c1cccnc1 [Compound 24a, Hydrochloride] | human CYP11B2 (Homo sapiens, UniProt P19099) | 84% |
| C(=C1/CCCc2ccccc21)/c1cnc[nH]1 [Compound 41a] | human CYP11B2 (Homo sapiens, UniProt P19099) | 80% |
| COc1cccc2c1/C(=C/c1cccnc1)CC2 [Compound 26a, Hydrochloride] | human CYP11B2 (Homo sapiens, UniProt P19099) | 76% |
| CCOc1ccc2c(c1)CC/C2=C/c1cccnc1 [Compound 19b, Hydrochloride] | human CYP11B2 (Homo sapiens, UniProt P19099) | 52% |
| COc1ccc2c(c1)CC/C2=C/c1cccnc1 [Compound 11b, Hydrochloride] | human CYP11B2 (Homo sapiens, UniProt P19099) | 81% |
| Brc1ccc2c(c1)CC/C2=C/c1cccnc1 [Compound 9b, Hydrochloride] | human CYP11B2 (Homo sapiens, UniProt P19099) | 58% |
| Cl.Clc1ccc2c(c1)CC/C2=C\c1cnc[nH]1 [Compound 48a] | human CYP11B2 (Homo sapiens, UniProt P19099) | 79% |
| COc1ccc2c(c1)CCC/C2=C\c1cccnc1 [Compound 13a, Hydrochloride] | human CYP11B2 (Homo sapiens, UniProt P19099) | 52% |
| Cc1cccc2c1CC/C2=C\c1cccnc1 [Compound 23a, Hydrochloride] | human CYP11B2 (Homo sapiens, UniProt P19099) | 52% |

----------
biological target: bovine adrenal CYP11B (Bos taurus); test: Percent inhibition of bovine CYP11B (adrenal mitochondria); conditions: read-out: % Inhibition bovine bCYP11B, bovine adrenal mitochondria, 1 mg/ml protein; corticosterone substrate 200 μM; inhibitor 1 μM
Sequence (P15150 25-503): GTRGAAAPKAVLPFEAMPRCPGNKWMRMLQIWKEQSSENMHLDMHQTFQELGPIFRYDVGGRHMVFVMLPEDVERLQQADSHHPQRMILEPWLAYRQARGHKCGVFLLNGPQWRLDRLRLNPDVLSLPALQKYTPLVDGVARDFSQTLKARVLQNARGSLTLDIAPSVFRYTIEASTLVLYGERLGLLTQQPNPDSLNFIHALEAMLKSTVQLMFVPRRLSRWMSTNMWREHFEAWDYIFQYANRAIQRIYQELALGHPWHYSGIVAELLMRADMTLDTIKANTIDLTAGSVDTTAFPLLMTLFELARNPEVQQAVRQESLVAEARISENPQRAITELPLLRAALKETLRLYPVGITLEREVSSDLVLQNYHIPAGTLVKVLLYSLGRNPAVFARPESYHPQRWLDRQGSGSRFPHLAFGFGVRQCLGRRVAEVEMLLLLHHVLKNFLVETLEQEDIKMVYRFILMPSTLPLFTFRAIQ
In this section we review reported inhibition at 1 µM values for a set of compounds.

| COMPOUND | inhibition at 1 µM, % |
| --- | --- |
| C(=C1/CCc2ccccc21)/c1cnc[nH]1 [Compound 42a] | 62 |
| C(=C1/CCCc2ccccc21)/c1cnc[nH]1 [Compound 41a] | 40 |
| Fc1ccc2c(c1)CC/C2=C\c1cnc[nH]1 [Compound 47a] | 67 |
| Brc1ccc2c(c1)CC/C2=C\c1cnc[nH]1.Cl [Compound 49a] | 63 |
| CC(=O)N1CCN(c2ccc(OCC3COC(Cn4ccnc4)(c4ccc(Cl)cc4Cl)O3)cc2)CC1 (stereo not shown) [Ketoconazole, reference compound] | 78 |
| Cl.Clc1ccc2c(c1)CC/C2=C\c1cnc[nH]1 [Compound 48a] | 45 |

----------
biological target: human CYP17 (Homo sapiens, UniProt P05093); construct: made in house; host or cells: E. coli pJL17/OR (membrane fraction); experiment: Percent inhibition of CYP17 (membrane fraction of E. coli pJL17/OR); format: biochemical; settings: E. coli which expresses human CYP17; 5 mg/ml protein; progesterone substrate 2.5 μM; inhibitor 2.5 μM; read-out: % Inhibition human CYP17
Sequence (P05093 whole entry): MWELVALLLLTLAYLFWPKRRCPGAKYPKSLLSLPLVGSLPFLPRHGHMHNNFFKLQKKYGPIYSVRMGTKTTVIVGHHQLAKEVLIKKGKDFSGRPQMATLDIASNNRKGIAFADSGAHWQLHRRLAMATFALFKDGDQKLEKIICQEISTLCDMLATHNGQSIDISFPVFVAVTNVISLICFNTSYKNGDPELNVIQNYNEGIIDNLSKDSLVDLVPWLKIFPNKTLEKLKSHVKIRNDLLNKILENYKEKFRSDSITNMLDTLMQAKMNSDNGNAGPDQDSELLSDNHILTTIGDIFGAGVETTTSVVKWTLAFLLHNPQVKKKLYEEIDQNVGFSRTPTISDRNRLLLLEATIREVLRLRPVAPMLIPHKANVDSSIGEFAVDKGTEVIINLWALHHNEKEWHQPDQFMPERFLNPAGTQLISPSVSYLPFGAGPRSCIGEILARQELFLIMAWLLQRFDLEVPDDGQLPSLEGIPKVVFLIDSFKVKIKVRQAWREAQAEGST
Where a name gives a salt, the structure may show the parent alone.
Mark MET for reported inhibition at 2.5 µM of 20% or greater; mark NOT MET for anything smaller.

| COMPOUND | ASSAYED TARGET | CLASS |
| --- | --- | --- |
| Clc1ccc2c(c1)CC/C2=C\c1cccnc1 [Compound 7a, Hydrochloride] | human CYP17 (Homo sapiens, UniProt P05093) | MET |
| C(=C1/CCCc2ccccc21)/c1cnc[nH]1 [Compound 41a] | human CYP17 (Homo sapiens, UniProt P05093) | NOT MET |
| Clc1ccc2c(c1)CC/C2=C\c1ccncc1 [Compound 8a, Hydrochloride] | human CYP17 (Homo sapiens, UniProt P05093) | NOT MET |
| Brc1ccc2c(c1)CC/C2=C\c1cccnc1 [Compound 9a, Hydrochloride] | human CYP17 (Homo sapiens, UniProt P05093) | NOT MET |
| Fc1ccc2c(c1)CC/C2=C\c1ccncc1 [Compound 6a, Hydrochloride] | human CYP17 (Homo sapiens, UniProt P05093) | NOT MET |
| C(=C1/CCc2ccccc21)/c1ccncc1 | human CYP17 (Homo sapiens, UniProt P05093) | NOT MET |
| COc1cccc2c1/C(=C/c1cccnc1)CC2 [Compound 26a, Hydrochloride] | human CYP17 (Homo sapiens, UniProt P05093) | NOT MET |
| CCOc1ccc2c(c1)CC/C2=C\c1cccnc1 [Compound 19a, Hydrochloride] | human CYP17 (Homo sapiens, UniProt P05093) | NOT MET |
| Cc1cccc2c1CC/C2=C\c1cccnc1 [Compound 23a, Hydrochloride] | human CYP17 (Homo sapiens, UniProt P05093) | MET |

----------
Target: UniProt P19099
Sequence (P19099 25-503): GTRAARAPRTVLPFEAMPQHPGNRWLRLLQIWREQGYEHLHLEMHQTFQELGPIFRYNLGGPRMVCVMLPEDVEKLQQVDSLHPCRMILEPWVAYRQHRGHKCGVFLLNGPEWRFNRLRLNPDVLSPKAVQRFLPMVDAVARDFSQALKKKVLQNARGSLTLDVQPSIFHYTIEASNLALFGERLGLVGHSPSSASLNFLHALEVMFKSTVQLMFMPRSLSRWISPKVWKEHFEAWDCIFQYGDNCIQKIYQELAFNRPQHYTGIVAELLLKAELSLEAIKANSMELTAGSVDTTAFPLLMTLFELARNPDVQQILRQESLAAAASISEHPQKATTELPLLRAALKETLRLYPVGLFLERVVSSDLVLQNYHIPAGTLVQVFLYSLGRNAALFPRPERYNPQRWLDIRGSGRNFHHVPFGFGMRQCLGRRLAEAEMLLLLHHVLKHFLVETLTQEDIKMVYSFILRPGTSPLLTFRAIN
Experiment: V79 MZh 11B2 cells inhibition test
Settings: hamster fibroblasts which express human CYP11B2; deoxycorticosterone substrate 100 nM; read-out: IC50 V79 11B2 hCYP11B2
Where a name gives a salt, the structure may show the parent alone.
Entries annotated with measured IC50

| COMPOUND | IC50 |
| --- | --- |
| C(=C1\CCc2ccccc21)/c1cnc[nH]1 [Compound 42b] | 11 nM |
| C(=C1/CCCc2ccccc21)/c1cccnc1.Cl [Compound 3a, Hydrochloride] | 21.6 nM |
| Brc1ccc2c(c1)CC/C2=C\c1cnc[nH]1.Cl [Compound 49a] | 92.8 nM |
| Cc1cccc2c1CC/C2=C\c1cccnc1 [Compound 23a, Hydrochloride] | 108 nM |
| Fc1ccc2c(c1)CC/C2=C\c1cccnc1 [Compound 5a, Hydrochloride] | 6.8 nM |
| Fc1ccc2c(c1)CC/C2=C/c1ccncc1 [Compound 6b, Hydrochloride] | 34 nM |
| COc1ccc2c(c1)CC/C2=C/c1cccnc1 [Compound 11b, Hydrochloride] | 26.4 nM |
| COc1ccc2c(c1)CC/C2=C\c1cccnc1 [Compound 11a, Hydrochloride] | 34.2 nM |
| Clc1ccc2c(c1)CC/C2=C/c1cccnc1 [Compound 7b, Hydrochloride] | 72.7 nM |
